Each recorded value in this set is attributed to patent US7652020B2.

Biological target: purified catalytic domain of recombinant human TACE (rhTACEc) (Homo sapiens, UniProt P78536, N452Q/S266A)
Construct: Residue 215 to 477 with two mutation (S266A and N452Q) and a 6×His tail; 6xHis (C); made in house; host or cells: baculovirus/Hi5 insect cells
Sequence (P78536 215-477 S266A/N452Q): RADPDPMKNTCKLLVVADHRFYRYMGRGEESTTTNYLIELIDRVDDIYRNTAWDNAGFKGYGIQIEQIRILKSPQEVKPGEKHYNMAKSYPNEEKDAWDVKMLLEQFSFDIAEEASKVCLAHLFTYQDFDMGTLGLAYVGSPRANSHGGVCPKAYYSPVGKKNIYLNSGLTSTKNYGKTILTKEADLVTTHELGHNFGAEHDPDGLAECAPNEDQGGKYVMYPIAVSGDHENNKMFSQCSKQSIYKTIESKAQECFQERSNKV
Assay: TACE kinetic assay: cleavage of internally quenched peptide substrate SPDL-3, fluorescence
Type: biochemical
Settings: TACE inhibitory activity, class symbols; read-out: Ki
Would you mind telling me the reported Ki of each entry?

input: Give reported Ki value for CC(C)Nc1nc([C@@H]2c3ccc(Cl)cc3CCN2C(=O)[C@H](O)[C@@H](O)C(=O)N[C@H](C)c2ccc(-n3cccn3)cc2)cs1
output: < 20 nM

input: Give reported Ki value for C[C@@H](NC(=O)[C@H](O)[C@@H](O)C(=O)N1CCCCC1c1ccccc1)c1ccc(-n2cccn2)cc1 (some centres unmarked)
output: < 20 nM

input: Give reported Ki value for CC1c2ncncc2CN1C(=O)[C@H](O)[C@@H](O)C(=O)N[C@H](C)c1ccc(-n2cccn2)cc1 (some centres unmarked)
output: 20 to 100 nM

input: Give reported Ki value for CC(C)Nc1nc([C@H]2CCCN2C(=O)[C@H](O)[C@@H](O)C(=O)N[C@H](C)c2ccc(-n3cccn3)cc2)cs1
output: < 20 nM

input: Give reported Ki value for C[C@@H](NC(=O)[C@H](O)[C@@H](O)C(=O)N1CCC[C@@H]1c1ccn(C)n1)c1ccc(-n2cccn2)cc1
output: < 20 nM

input: Give reported Ki value for C[C@@H](NC(=O)[C@H](O)[C@@H](O)C(=O)N1C[C@H]2CNC[C@H]2C1)c1ccc(-n2cccn2)cc1
output: 100 to 1000 nM

input: Give reported Ki value for CC#CCOc1cc([C@@H](C)NC(=O)[C@H](O)[C@@H](O)C(=O)N2CCC[C@@H]2c2cccc(Cl)c2)ccc1-n1cccn1
output: < 20 nM

input: Give reported Ki value for O=C(NCc1ccc(-c2ccccc2OCC2CCCC2)cc1)[C@H](O)[C@@H](O)C(=O)N1CCCC1
output: 20 to 100 nM

input: Give reported Ki value for O=C(NCC1CCN(c2ccc(F)cc2Br)CC1)[C@H](O)[C@@H](O)C(=O)N1Cc2ccccc2C1
output: < 20 nM

input: Give reported Ki value for C[C@@H](NC(=O)[C@H](O)[C@@H](O)C(=O)N1C2CCC1CC2)c1ccc(-n2cccn2)cc1
output: 100 to 1000 nM

input: Give reported Ki value for C[C@@H](NC(=O)[C@H](O)[C@@H](O)C(=O)N1CCC(=O)N1c1cccc(Cl)c1)c1ccc(-n2cccn2)cc1
output: 100 to 1000 nM

input: Give reported Ki value for CCNc1nc([C@H]2c3ccccc3CN2C(=O)[C@H](O)[C@@H](O)C(=O)N[C@H](C)c2ccc(-n3cccn3)cc2)cs1
output: < 20 nM

input: Give reported Ki value for O=C(NCc1ccc(-c2ccccc2OC(F)(F)F)c[n+]1[O-])[C@H](O)[C@@H](O)C(=O)N1CCCC1
output: > 1000 nM

input: Give reported Ki value for C[C@@H](NC(=O)[C@H](O)[C@@H](O)C(=O)N1Cc2cncnc2C1)c1ccc(-n2cccn2)cc1
output: < 20 nM

input: Give reported Ki value for N#Cc1cc(F)ccc1N1CCC(CNC(=O)[C@H](O)[C@@H](O)C(=O)N2Cc3ccncc3C2)CC1
output: < 20 nM

input: Give reported Ki value for C[C@](O)(C(=O)NCC1CCN(c2ccc(F)cc2C#N)CC1)[C@@H](O)C(=O)N1Cc2cccnc2C1
output: 20 to 100 nM

input: Give reported Ki value for CCCN(C(=O)[C@H](O)[C@@H](O)C(=O)N[C@H](C)c1ccc(-n2cccn2)cc1)C(C)c1cccc(Cl)c1 (some centres unmarked)
output: > 1000 nM

input: Give reported Ki value for CNc1nc2c(s1)CN(C(=O)[C@H](O)[C@@H](O)C(=O)N[C@H](C)c1ccc(-n3cccn3)cc1)CC2
output: 20 to 100 nM

input: Give reported Ki value for Cc1nc2c(s1)CN(C(=O)[C@H](O)[C@@](C)(O)C(=O)N[C@H](C)c1ccc(-n3cccn3)cc1)C2
output: < 20 nM

input: Give reported Ki value for C[C@@H](NC(=O)[C@H](O)[C@@H](O)C(=O)N1CCCCC1c1nccs1)c1ccc(-n2cccn2)cc1 (some centres unmarked)
output: 20 to 100 nM

input: Give reported Ki value for C[C@@H](NC(=O)[C@H](O)[C@@H](O)C(=O)N1Cc2cccnc2C1)c1ccc(-c2cccc(OCCC3CCCCC3)c2)cc1 [Compound 2353B]
output: 20 to 100 nM

input: Give reported Ki value for CC(=O)Nc1nc([C@H]2CCCN2C(=O)[C@H](O)[C@@H](O)C(=O)N[C@H](C)c2ccc(-n3cccn3)cc2)cs1
output: < 20 nM

input: Give reported Ki value for C[C@@H](NC(=O)[C@](C)(O)[C@@H](O)C(=O)N1CCc2ccc(F)cc2C1)c1ccc(-n2cccn2)cc1
output: 20 to 100 nM

input: Give reported Ki value for C[C@@H](NC(=O)[C@H](O)[C@@H](O)C(=O)N1CCC[C@@H]1c1csc(N(C)C)n1)c1ccc(-n2cccn2)cc1
output: 20 to 100 nM

input: Give reported Ki value for CCOC(=O)c1cccn2cc([C@H]3CCCN3C(=O)[C@H](O)[C@@H](O)C(=O)N[C@H](C)c3ccc(-n4cccn4)cc3)nc12
output: 20 to 100 nM

input: Give reported Ki value for CO[C@@H](C(=O)NCc1ccc(-c2ccc(F)cc2OCCC(C)(C)C)cc1)[C@@H](O)C(=O)N1Cc2cccnc2C1
output: 20 to 100 nM

---

Would you mind telling me the reported Ki of each entry?
Target: purified catalytic domain of recombinant human TACE (rhTACEc) (Homo sapiens, UniProt P78536, N452Q/S266A)
Construct: Residue 215 to 477 with two mutation (S266A and N452Q) and a 6×His tail; 6xHis (C); made in house; host or cells: baculovirus/Hi5 insect cells
Test: TACE kinetic assay: cleavage of internally quenched peptide substrate SPDL-3, fluorescence
Type: biochemical
Settings: TACE inhibitory activity, class symbols; read-out: Ki

input: Give reported Ki value for C[C@@H](NC(=O)[C@H](O)[C@@H](O)C(=O)N1CCCCC1c1cccc(Cl)c1)c1ccc(-n2cccn2)cc1 (some centres unmarked)
output: 20 to 100 nM

input: Give reported Ki value for CCOc1c(F)cccc1N1CCC(CNC(=O)[C@H](O)[C@@H](O)C(=O)N2CCCC2)CC1
output: > 1000 nM

input: Give reported Ki value for CCOc1cc(F)ccc1-c1ccc(CNC(=O)[C@H](O)[C@@H](O)C(=O)N2Cc3ccncc3C2)cc1
output: < 20 nM

input: Give reported Ki value for C[C@@H](NC(=O)[C@H](O)[C@@H](O)C(=O)N1CCn2ccnc2C1)c1ccc(-n2cccn2)cc1
output: 100 to 1000 nM

input: Give reported Ki value for Cc1nc2c(s1)CN(C(=O)[C@H](O)[C@@H](O)C(=O)NCC1CCN(c3ccccc3C#N)CC1C)C2 (some centres unmarked)
output: < 20 nM

input: Give reported Ki value for C[C@](O)(C(=O)NCC1CCN(c2ccc(F)cc2C#N)CC1)[C@@H](O)C(=O)N1Cc2ccncc2C1
output: 20 to 100 nM

input: Give reported Ki value for C[C@](O)(C(=O)NCC1CCN(c2ccccc2OC(F)(F)F)CC1)[C@@H](O)C(=O)N1Cc2cccnc2C1
output: 20 to 100 nM

input: Give reported Ki value for C[C@@H](NC(=O)[C@H](O)[C@@H](O)C(=O)N1CCCCC1)c1ccc(-n2cccn2)cc1
output: 20 to 100 nM

input: Give reported Ki value for C[C@@H](NC(=O)[C@H](O)[C@@H](O)C(=O)N1CCCN1c1ccccc1)c1ccc(-n2cccn2)cc1
output: 100 to 1000 nM

input: Give reported Ki value for O=C(NCc1ccc(-c2ccccc2OC(F)(F)F)cn1)[C@H](O)[C@@H](O)C(=O)N1CCCC1
output: < 20 nM

input: Give reported Ki value for COc1cc([C@@H](C)NC(=O)[C@](C)(O)[C@@H](O)C(=O)N2Cc3cccnc3C2)ccc1Br
output: > 1000 nM

input: Give reported Ki value for C[C@@H](NC(=O)[C@H](O)[C@@H](O)C(=O)N1CCc2ccc(F)cc2C1)c1ccc(-n2cccn2)cc1
output: < 20 nM

input: Give reported Ki value for C[C@@H](NC(=O)[C@H](O)[C@@H](O)C(=O)N1Cc2cncnc2C1(C)C)c1ccc(-n2cccn2)cc1
output: 100 to 1000 nM

input: Give reported Ki value for O=C(NCC1CCN(c2ccc(F)cc2OCCC2CCCCC2)CC1)[C@H](O)[C@@H](O)C(=O)N1CCCC1
output: 20 to 100 nM
